target system: Mas-related G-protein coupled receptor member X1 (Homo sapiens) (UniProt Q96LB2)
Sequence (Q96LB2 whole entry, looked up): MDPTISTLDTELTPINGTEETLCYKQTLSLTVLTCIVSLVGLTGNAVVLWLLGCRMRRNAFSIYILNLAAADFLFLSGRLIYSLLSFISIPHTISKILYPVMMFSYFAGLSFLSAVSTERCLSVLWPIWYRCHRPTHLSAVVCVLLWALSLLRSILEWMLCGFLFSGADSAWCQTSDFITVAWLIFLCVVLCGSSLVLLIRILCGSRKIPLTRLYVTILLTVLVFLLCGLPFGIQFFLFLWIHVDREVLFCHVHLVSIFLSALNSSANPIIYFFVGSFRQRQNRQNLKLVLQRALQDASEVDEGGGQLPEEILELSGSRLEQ
assay comment: blockade of BAM8-22-evoked MrgX1 calcium response – HEK293 cells, Fluo-4 calcium flux, primary screen (AID 588676)
cond: Fluo-4, BAM8-22 antagonism, at 10 µM
Hit rate of the full screen: of about 310,000 compounds, about 3,900 (1.3%) were called active.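 How the source made its calls: active means calcium-response B-score plate-corrected more than 3 library SD below zero, starting fluorescence within 5 deviations, no agonist response on first addition; inactive means the rest.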 Many of the other results were omitted from the sample, so actives are more common in it than they were.
Outcomes: 1 (active), -1 (inactive)

compound	group label
O=C1CCCc2c1nc(-c1cccc(Cl)c1)n2O	1
CCOC(=O)c1c(C)nc(-c2ccccc2)nc1NC(=O)C(C)C	-1
NC(N)=NCCCc1cn(CC(=O)N2CCNCC2)nn1	-1
CCOc1ccc(NC(=O)CSc2nc3c(c(=O)n2-c2ccccc2OC)SCC3)cc1	-1
O=[N+]([O-])c1ccc2c(c1)Nc1nc3ccccc3nc1N2	1
CC(=O)c1c(C)[nH]c(=S)c(C#N)c1-c1ccc(F)cc1	-1
CCOC(=O)c1c(C)[nH]c(=S)c(C#N)c1-c1ccccc1	1
O=c1c2cc(Br)ccc2nc(-c2cccc(Cl)c2)n1O	-1
CC1CCC(N2CC(=O)N(Cc3ccc4c(c3)OCO4)C(c3ccc(F)cc3)C2=O)CC1 (stereo unspecified)	-1
O=[N+]([O-])c1ccc2nc(-c3ccccn3)[nH]c2c1	-1
CCc1nnc(NC(=O)CSc2nc3c(c(=O)n2-c2ccccc2OC)SCC3)s1	1

This collection of values is drawn from PubChem BioAssay AID588676.
